I'd be grateful if you could share measured Ratio OD(Variant)/OD(WT) for these entries.
target: HRgpA-6H (Porphyromonas gingivalis) (UniProt P28784); assay: ELISA on coated HRgpA-6H
Answer with a number only.

Ratio OD(Variant)/OD(WT) reading for KB001 mouse Fab FASEBA VH S28N (Fab, V domains shown) VH: EVQLKQSGPGLVAPSQSLSITCTVSGFNLSIYSVHWVRQPPGKGLEWLGMIWGGGSSDYNSALKSRLSISKDNSKSQVFLKMNSLQTDDTAMYYCARNGNFYAMDYWGQGTSVTVSS VL: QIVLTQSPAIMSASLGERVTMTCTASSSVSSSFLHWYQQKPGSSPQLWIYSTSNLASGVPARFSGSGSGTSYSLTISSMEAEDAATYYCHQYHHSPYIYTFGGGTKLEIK : 0.981

Ratio OD(Variant)/OD(WT) reading for KB001 mouse Fab FASEBA VH K64A (Fab, V domains shown) VH: EVQLKQSGPGLVAPSQSLSITCTVSGFSLSIYSVHWVRQPPGKGLEWLGMIWGGGSSDYNSALASRLSISKDNSKSQVFLKMNSLQTDDTAMYYCARNGNFYAMDYWGQGTSVTVSS VL: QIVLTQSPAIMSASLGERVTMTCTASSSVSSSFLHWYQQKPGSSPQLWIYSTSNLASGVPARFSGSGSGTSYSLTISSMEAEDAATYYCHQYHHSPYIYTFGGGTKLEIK : 1.08

Ratio OD(Variant)/OD(WT) reading for KB001 mouse Fab FASEBA VH S28Y (Fab, V domains shown) VH: EVQLKQSGPGLVAPSQSLSITCTVSGFYLSIYSVHWVRQPPGKGLEWLGMIWGGGSSDYNSALKSRLSISKDNSKSQVFLKMNSLQTDDTAMYYCARNGNFYAMDYWGQGTSVTVSS VL: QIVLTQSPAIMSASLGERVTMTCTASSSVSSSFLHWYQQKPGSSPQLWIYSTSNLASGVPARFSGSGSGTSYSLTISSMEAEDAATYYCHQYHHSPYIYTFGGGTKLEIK : 0.809

Ratio OD(Variant)/OD(WT) reading for KB001 mouse Fab FASEBA VH S61C (Fab, V domains shown) VH: EVQLKQSGPGLVAPSQSLSITCTVSGFSLSIYSVHWVRQPPGKGLEWLGMIWGGGSSDYNCALKSRLSISKDNSKSQVFLKMNSLQTDDTAMYYCARNGNFYAMDYWGQGTSVTVSS VL: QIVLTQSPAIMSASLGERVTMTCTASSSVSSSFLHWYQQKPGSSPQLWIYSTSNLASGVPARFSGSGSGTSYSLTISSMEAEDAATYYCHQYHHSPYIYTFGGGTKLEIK : 0.873

Ratio OD(Variant)/OD(WT) reading for KB001 mouse Fab FASEBA VH I31W (Fab, V domains shown) VH: EVQLKQSGPGLVAPSQSLSITCTVSGFSLSWYSVHWVRQPPGKGLEWLGMIWGGGSSDYNSALKSRLSISKDNSKSQVFLKMNSLQTDDTAMYYCARNGNFYAMDYWGQGTSVTVSS VL: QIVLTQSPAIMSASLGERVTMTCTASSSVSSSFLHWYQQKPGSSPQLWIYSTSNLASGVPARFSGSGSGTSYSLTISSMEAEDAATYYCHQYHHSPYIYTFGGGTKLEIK : 0.91

Ratio OD(Variant)/OD(WT) reading for KB001 mouse Fab FASEBA VH S30E (Fab, V domains shown) VH: EVQLKQSGPGLVAPSQSLSITCTVSGFSLEIYSVHWVRQPPGKGLEWLGMIWGGGSSDYNSALKSRLSISKDNSKSQVFLKMNSLQTDDTAMYYCARNGNFYAMDYWGQGTSVTVSS VL: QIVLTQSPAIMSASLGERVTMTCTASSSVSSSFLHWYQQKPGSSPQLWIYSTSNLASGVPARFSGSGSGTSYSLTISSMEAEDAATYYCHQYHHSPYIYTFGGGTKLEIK : 1.12

Ratio OD(Variant)/OD(WT) reading for KB001 mouse Fab FASEBA VH S28R (Fab, V domains shown) VH: EVQLKQSGPGLVAPSQSLSITCTVSGFRLSIYSVHWVRQPPGKGLEWLGMIWGGGSSDYNSALKSRLSISKDNSKSQVFLKMNSLQTDDTAMYYCARNGNFYAMDYWGQGTSVTVSS VL: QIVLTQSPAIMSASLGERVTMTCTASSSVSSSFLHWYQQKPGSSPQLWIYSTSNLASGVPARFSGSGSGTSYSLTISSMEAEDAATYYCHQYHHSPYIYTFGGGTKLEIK : 0.848

Ratio OD(Variant)/OD(WT) reading for KB001 mouse Fab FASEBA VH L29V (Fab, V domains shown) VH: EVQLKQSGPGLVAPSQSLSITCTVSGFSVSIYSVHWVRQPPGKGLEWLGMIWGGGSSDYNSALKSRLSISKDNSKSQVFLKMNSLQTDDTAMYYCARNGNFYAMDYWGQGTSVTVSS VL: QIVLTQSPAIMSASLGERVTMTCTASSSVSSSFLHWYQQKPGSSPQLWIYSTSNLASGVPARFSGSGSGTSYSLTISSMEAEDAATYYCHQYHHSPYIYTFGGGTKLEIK : 0.826

Ratio OD(Variant)/OD(WT) reading for KB001 mouse Fab FASEBA VH Y59F (Fab, V domains shown) VH: EVQLKQSGPGLVAPSQSLSITCTVSGFSLSIYSVHWVRQPPGKGLEWLGMIWGGGSSDFNSALKSRLSISKDNSKSQVFLKMNSLQTDDTAMYYCARNGNFYAMDYWGQGTSVTVSS VL: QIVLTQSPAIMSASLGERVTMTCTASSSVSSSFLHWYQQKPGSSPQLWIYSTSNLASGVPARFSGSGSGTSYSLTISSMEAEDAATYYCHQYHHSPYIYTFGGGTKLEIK : 0.845

Ratio OD(Variant)/OD(WT) reading for KB001 mouse Fab FASEBA VH H35V (Fab, V domains shown) VH: EVQLKQSGPGLVAPSQSLSITCTVSGFSLSIYSVVWVRQPPGKGLEWLGMIWGGGSSDYNSALKSRLSISKDNSKSQVFLKMNSLQTDDTAMYYCARNGNFYAMDYWGQGTSVTVSS VL: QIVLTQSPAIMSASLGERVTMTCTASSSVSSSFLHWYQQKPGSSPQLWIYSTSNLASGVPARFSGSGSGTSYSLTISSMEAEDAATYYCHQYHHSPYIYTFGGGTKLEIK : 0.856
